Every entry's value here was drawn from patent US20230049752A1.

Experimental system: CLDN3/4 (endogenous on LS513 or MCF7 cells)
Protocol summary: FACS titration of labelled mAb on MCF7 cells (endogenous CLDN3/4+)
Property: EC50 (µM)
API: value field is a number in µM; no unit string.

Solved cases (3 shown):
[[record]]
binder = "AB10 (antibody, V domains shown, full-length IgG (ExpiCHO)) VH: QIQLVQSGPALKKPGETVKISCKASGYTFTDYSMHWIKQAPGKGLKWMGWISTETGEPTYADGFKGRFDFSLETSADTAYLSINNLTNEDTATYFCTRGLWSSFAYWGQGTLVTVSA VL: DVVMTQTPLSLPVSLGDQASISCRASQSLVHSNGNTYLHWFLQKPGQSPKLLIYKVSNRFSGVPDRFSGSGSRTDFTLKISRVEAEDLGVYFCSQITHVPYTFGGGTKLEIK"
recorded_measurement = 5

[[record]]
binder = "AB6 (antibody, V domains shown, full-length IgG (ExpiCHO)) VH: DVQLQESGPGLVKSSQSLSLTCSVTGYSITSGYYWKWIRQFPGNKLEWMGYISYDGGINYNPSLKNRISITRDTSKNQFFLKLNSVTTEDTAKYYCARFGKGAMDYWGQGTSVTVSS VL: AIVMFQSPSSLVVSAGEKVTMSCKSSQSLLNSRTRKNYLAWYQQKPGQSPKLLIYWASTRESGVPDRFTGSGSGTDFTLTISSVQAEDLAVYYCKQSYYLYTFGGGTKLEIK"
recorded_measurement = 1.14

[[record]]
binder = "AB12 (antibody, V domains shown, full-length IgG (ExpiCHO)) VH: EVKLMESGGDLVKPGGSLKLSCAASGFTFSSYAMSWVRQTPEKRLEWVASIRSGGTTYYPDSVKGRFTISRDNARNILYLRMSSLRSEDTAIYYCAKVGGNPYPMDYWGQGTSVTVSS VL: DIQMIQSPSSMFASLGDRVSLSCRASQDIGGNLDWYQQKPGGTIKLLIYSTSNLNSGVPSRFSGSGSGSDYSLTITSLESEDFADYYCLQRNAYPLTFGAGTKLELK"
recorded_measurement = 5


Per the record, AB15 (antibody, V domains shown, full-length IgG (ExpiCHO)) VH: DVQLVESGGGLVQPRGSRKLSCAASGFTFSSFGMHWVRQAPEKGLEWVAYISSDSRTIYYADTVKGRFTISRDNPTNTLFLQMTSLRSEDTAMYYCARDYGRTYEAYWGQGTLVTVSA VL: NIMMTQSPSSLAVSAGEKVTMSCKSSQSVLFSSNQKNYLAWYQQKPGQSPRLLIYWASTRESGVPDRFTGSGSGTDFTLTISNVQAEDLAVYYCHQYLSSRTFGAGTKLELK has EC50 of 5

Field EC50 (entry AB5 (antibody, V domains shown, full-length IgG (ExpiCHO)) VH: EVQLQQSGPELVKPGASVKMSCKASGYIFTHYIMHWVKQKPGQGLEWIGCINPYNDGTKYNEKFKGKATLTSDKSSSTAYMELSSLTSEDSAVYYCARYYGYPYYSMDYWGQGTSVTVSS VL: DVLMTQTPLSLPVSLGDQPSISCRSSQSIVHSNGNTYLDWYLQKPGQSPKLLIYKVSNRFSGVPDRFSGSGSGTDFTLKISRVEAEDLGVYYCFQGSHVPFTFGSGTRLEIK ) reads 1.49
